The entries below are paired with their reported polymerase ribozyme fitness (log ratio).
B1: TPR 5TU (parent)
chain: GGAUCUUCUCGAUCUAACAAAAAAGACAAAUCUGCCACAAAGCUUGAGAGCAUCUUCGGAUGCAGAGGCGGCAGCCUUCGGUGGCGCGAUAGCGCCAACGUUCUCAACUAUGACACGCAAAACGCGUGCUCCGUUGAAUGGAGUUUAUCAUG

variants of: B1; assay: polymerase ribozyme fitness, log enrichment relative to wild type (log ratio); higher = more active; in vitro selection for triplet polymerase activity
This sample holds only a part of the variants without activity.

| variant descriptor | censoring qualifier | polymerase ribozyme fitness (log ratio) |
| --- | --- | --- |
| U82A C93G G126U | = | -2.84 |
| A12C C99U C105G | ≤ | -4.2 |
| A19U G25A U61A | ≤ | -4.2 |
| U13G C69A | ≤ | -4.2 |
| A41G C57U C85U C116U | = | 0.221 |
| A73C G141A | = | -3.8 |
| G83C C105G | = | -2.69 |
| C27U C85A A91U G143A | ≤ | -4.2 |
| C5G C76U | = | -0.335 |
| U55C G62A A64C C72G G140U U144A | ≤ | -4.2 |
| U55A U56A G71A U82G U102G | ≤ | -4.2 |
| G58A G88C G92A C96A | ≤ | -4.2 |
| U144C | = | 0.0778 |
| C10U C93U | = | -4.06 |
| C38U G62C G94U | = | -3.3 |
| U53C C54U C96A A120U | = | -0.901 |
| C51A C95U A97U | = | -2.64 |
| A23U C99U | = | -3.84 |
| A17C G58U G128A A138U | = | -4.13 |
| G59A A60C C79G G81A U101G C132A U146A | ≤ | -4.2 |
| G48U C85U | = | -0.485 |
| A29G A73U A91G C99U A115U A137U | ≤ | -4.2 |
| A20U A49U C93G C103U | ≤ | -4.2 |
| A24U C99U | = | -1.46 |
| C8G A12G C35U C75A G86U U109G U127G A137G | ≤ | -4.2 |
| A21U C79G C96U C105U U134A | ≤ | -4.2 |
| U33G A39G G62U G92A A122U U134A | ≤ | -4.2 |
| G42C A60G A113U G140U | = | -3.85 |
| A16G C38U U82A C96G | = | -1 |
| U61A A73G C93U C125A | = | -3.14 |
| G92U A121G G143C U145G | = | -3.44 |
| G59C G124A U151C | = | -3.78 |
| A40C A41C A107U C108G G117C | ≤ | -4.2 |
| A39G C96U | = | -2.18 |
| A21G A52C C75G C85U A89G C96G A150G | = | -3.89 |
| A26U C36A G58C A89G G94U A138G | ≤ | -4.2 |
| A16U A17G C85G | = | -4.18 |
| A41G U56A C79U U82G C85U A122G C129A G136U | ≤ | -4.2 |
| C54U U151C | = | -3.65 |
| A47C C69A A89G G124A | = | -3.28 |
| A97C A119G | = | 0.72 |
| C5U A47C G59A C87U C93U | = | -3.16 |
| C54G C75G G86U G92C G124U C125A A137C U151C | ≤ | -4.2 |
| A17C C95U C96U G136A U144C A147U | = | -0.941 |
| A26U C125A | = | -1.8 |
| C96U G124U | = | -0.372 |
